// provenance: paper PMC3365038

Assay: in vivo
Set-up: species or system Balb/c nu/nu mice
Details: female, Balb/c nu/nu, mouse, iv, 1 MBq, total radioactivity, Tumor to organ ratio, Liver
Peptide text beside a SMILES is read from it.
Endpoint: tissue to tissue ratio at 4 h
Give the figure only, with no unit attached.

Task: Specify tissue to tissue ratio at 4 h for CC(C)C[C@H](NC(=O)[C@@H]1CCCN1C(=O)[C@@H](NC(=O)[C@H](Cc1c[nH]cn1)NC(=O)[C@@H](N)CC(N)=O)C(C)C)C(=O)N[C@@H](CO)C(=O)N1CCC[C@H]1C(=O)N[C@H](Cc1ccc(O)c(I)c1)C(N)=O [^131I-CaIX-P1-4-10] (HELM PEPTIDE1{N.H.V.P.L.S.P.[O=C([C@@H](Cc1ccc(O)c(I)c1)N[*:1])[*:2]].[am]}$$$$V2.0; N-terminus assumed) and stop.
Result: 1.49
